B1: Caulobacter ParB omega fusion; a variant is named by its letters at X, in order, B8GW30 (parent)
chain: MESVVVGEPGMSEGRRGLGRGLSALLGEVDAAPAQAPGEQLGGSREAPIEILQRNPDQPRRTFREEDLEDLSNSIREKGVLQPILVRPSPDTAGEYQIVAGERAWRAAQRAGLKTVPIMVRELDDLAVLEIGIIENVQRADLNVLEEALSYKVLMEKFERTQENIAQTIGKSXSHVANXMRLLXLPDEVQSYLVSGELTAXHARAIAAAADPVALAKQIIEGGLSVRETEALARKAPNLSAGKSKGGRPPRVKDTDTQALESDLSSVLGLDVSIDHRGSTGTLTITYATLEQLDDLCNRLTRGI

- Variants of: B1
- test_name: one-hybrid fitness for binding NBS DNA (the Noc-binding site; scaled: cognate 1, non-cognate 0); higher = stronger binding
- condition_summary: with NBS DNA site
Whole data set: some 81,000 sequences, median “one-hybrid fitness for binding NBS DNA” near -0.1, cut for the highest 2% near 0.36. The sample holds the highest values, similar sequences and a random draw of the others, so the mix is not that of the screen.
Consider the following variants; for each one, report its one-hybrid fitness for binding NBS DNA.

Return reported one-hybrid fitness for binding NBS DNA; argument: RLQP
≤ 0.2

Return reported one-hybrid fitness for binding NBS DNA; argument: QFHT
≤ 0.2

Return reported one-hybrid fitness for binding NBS DNA; argument: QSKS
0.645

Return reported one-hybrid fitness for binding NBS DNA; argument: RQLR
0.359

Return reported one-hybrid fitness for binding NBS DNA; argument: EGSD
≤ 0.2

Return reported one-hybrid fitness for binding NBS DNA; argument: RQQT
0.441

Return reported one-hybrid fitness for binding NBS DNA; argument: MPCT
≤ 0.2

Return reported one-hybrid fitness for binding NBS DNA; argument: LSRY
≤ 0.2

Return reported one-hybrid fitness for binding NBS DNA; argument: RTRT
0.704

Return reported one-hybrid fitness for binding NBS DNA; argument: PGAA
≤ 0.2

Return reported one-hybrid fitness for binding NBS DNA; argument: QIHN
≤ 0.2

Return reported one-hybrid fitness for binding NBS DNA; argument: RRWI
0.2

Return reported one-hybrid fitness for binding NBS DNA; argument: QPSH
≤ 0.2

Return reported one-hybrid fitness for binding NBS DNA; argument: QIKS
0.497

Return reported one-hybrid fitness for binding NBS DNA; argument: RMQH
≤ 0.2

Return reported one-hybrid fitness for binding NBS DNA; argument: AVLE
≤ 0.2

Return reported one-hybrid fitness for binding NBS DNA; argument: RSLS
0.303

Return reported one-hybrid fitness for binding NBS DNA; argument: RQGS
0.408

Return reported one-hybrid fitness for binding NBS DNA; argument: MSFM
≤ 0.2

Return reported one-hybrid fitness for binding NBS DNA; argument: QPKS
≤ 0.2

Return reported one-hybrid fitness for binding NBS DNA; argument: QRDF
≤ 0.2

Return reported one-hybrid fitness for binding NBS DNA; argument: RTGI
≤ 0.2

Return reported one-hybrid fitness for binding NBS DNA; argument: QDCL
≤ 0.2

Return reported one-hybrid fitness for binding NBS DNA; argument: QVSR
0.38

Return reported one-hybrid fitness for binding NBS DNA; argument: RQGN
≤ 0.2

Return reported one-hybrid fitness for binding NBS DNA; argument: QTYF
≤ 0.2

Return reported one-hybrid fitness for binding NBS DNA; argument: QRRF
0.418

Return reported one-hybrid fitness for binding NBS DNA; argument: HYMT
≤ 0.2

Return reported one-hybrid fitness for binding NBS DNA; argument: QQDV
≤ 0.2

Return reported one-hybrid fitness for binding NBS DNA; argument: QVGP
≤ 0.2

Return reported one-hybrid fitness for binding NBS DNA; argument: RTQM
≤ 0.2

Return reported one-hybrid fitness for binding NBS DNA; argument: FSIR
≤ 0.2

Return reported one-hybrid fitness for binding NBS DNA; argument: QQRV
0.493

Return reported one-hybrid fitness for binding NBS DNA; argument: RQGP
≤ 0.2

Return reported one-hybrid fitness for binding NBS DNA; argument: SLHW
≤ 0.2

Return reported one-hybrid fitness for binding NBS DNA; argument: RQYR
0.368

Return reported one-hybrid fitness for binding NBS DNA; argument: NWPM
≤ 0.2

Return reported one-hybrid fitness for binding NBS DNA; argument: RMQS
0.409

Return reported one-hybrid fitness for binding NBS DNA; argument: QVYR
0.306

Return reported one-hybrid fitness for binding NBS DNA; argument: TPHH
≤ 0.2

Return reported one-hybrid fitness for binding NBS DNA; argument: RMWT
0.348

Return reported one-hybrid fitness for binding NBS DNA; argument: RCQS
0.474

Return reported one-hybrid fitness for binding NBS DNA; argument: RTWT
0.356

Return reported one-hybrid fitness for binding NBS DNA; argument: MLVG
≤ 0.2

Return reported one-hybrid fitness for binding NBS DNA; argument: TGAR
≤ 0.2

Return reported one-hybrid fitness for binding NBS DNA; argument: RTSP
≤ 0.2

Return reported one-hybrid fitness for binding NBS DNA; argument: QWSR
0.229

Return reported one-hybrid fitness for binding NBS DNA; argument: LEVT
≤ 0.2

Return reported one-hybrid fitness for binding NBS DNA; argument: QVCG
≤ 0.2

Return reported one-hybrid fitness for binding NBS DNA; argument: QQKV
0.533

Return reported one-hybrid fitness for binding NBS DNA; argument: TMHT
≤ 0.2

Return reported one-hybrid fitness for binding NBS DNA; argument: LLAR
≤ 0.2

Return reported one-hybrid fitness for binding NBS DNA; argument: RQQK
≤ 0.2

Return reported one-hybrid fitness for binding NBS DNA; argument: RTST
0.565

Return reported one-hybrid fitness for binding NBS DNA; argument: QQVV
≤ 0.2

Return reported one-hybrid fitness for binding NBS DNA; argument: VKWG
≤ 0.2

Return reported one-hybrid fitness for binding NBS DNA; argument: QTHC
0.248

Return reported one-hybrid fitness for binding NBS DNA; argument: QARH
0.529

Return reported one-hybrid fitness for binding NBS DNA; argument: QIVS
≤ 0.2

Return reported one-hybrid fitness for binding NBS DNA; argument: QVRR
0.77

Return reported one-hybrid fitness for binding NBS DNA; argument: RPQS
≤ 0.2

Return reported one-hybrid fitness for binding NBS DNA; argument: RMTS
0.433

Return reported one-hybrid fitness for binding NBS DNA; argument: QASR
0.482

Return reported one-hybrid fitness for binding NBS DNA; argument: RMYT
0.417

Return reported one-hybrid fitness for binding NBS DNA; argument: QPSP
≤ 0.2

Return reported one-hybrid fitness for binding NBS DNA; argument: DYIR
≤ 0.2

Return reported one-hybrid fitness for binding NBS DNA; argument: QAIS
≤ 0.2

Return reported one-hybrid fitness for binding NBS DNA; argument: QPSR
0.44

Return reported one-hybrid fitness for binding NBS DNA; argument: QTHT
0.648

Return reported one-hybrid fitness for binding NBS DNA; argument: QIKN
0.223

Return reported one-hybrid fitness for binding NBS DNA; argument: QARN
0.349

Return reported one-hybrid fitness for binding NBS DNA; argument: QCHT
0.551

Return reported one-hybrid fitness for binding NBS DNA; argument: RRLH
0.365

Return reported one-hybrid fitness for binding NBS DNA; argument: NNCS
≤ 0.2

Return reported one-hybrid fitness for binding NBS DNA; argument: RCLH
≤ 0.2

Return reported one-hybrid fitness for binding NBS DNA; argument: QAWG
≤ 0.2

Return reported one-hybrid fitness for binding NBS DNA; argument: QPRF
≤ 0.2

Return reported one-hybrid fitness for binding NBS DNA; argument: RCLS
0.396

Return reported one-hybrid fitness for binding NBS DNA; argument: RTQC
≤ 0.2

Return reported one-hybrid fitness for binding NBS DNA; argument: QQYV
≤ 0.2

Return reported one-hybrid fitness for binding NBS DNA; argument: MMDT
≤ 0.2

Return reported one-hybrid fitness for binding NBS DNA; argument: QQFV
≤ 0.2

Return reported one-hybrid fitness for binding NBS DNA; argument: IVEG
≤ 0.2

Return reported one-hybrid fitness for binding NBS DNA; argument: QTHG
0.234

Return reported one-hybrid fitness for binding NBS DNA; argument: AHGY
≤ 0.2

Return reported one-hybrid fitness for binding NBS DNA; argument: RMTN
≤ 0.2

Return reported one-hybrid fitness for binding NBS DNA; argument: WPSG
≤ 0.2

Return reported one-hybrid fitness for binding NBS DNA; argument: GPTF
≤ 0.2

Return reported one-hybrid fitness for binding NBS DNA; argument: RTET
0.234

Return reported one-hybrid fitness for binding NBS DNA; argument: QGSR
≤ 0.2

Return reported one-hybrid fitness for binding NBS DNA; argument: QSRF
0.265
